- target or test system: Kappa-type opioid receptor (Homo sapiens, UniProt P41145); also: assay procedure not described here
- Sequence (P41145 whole entry): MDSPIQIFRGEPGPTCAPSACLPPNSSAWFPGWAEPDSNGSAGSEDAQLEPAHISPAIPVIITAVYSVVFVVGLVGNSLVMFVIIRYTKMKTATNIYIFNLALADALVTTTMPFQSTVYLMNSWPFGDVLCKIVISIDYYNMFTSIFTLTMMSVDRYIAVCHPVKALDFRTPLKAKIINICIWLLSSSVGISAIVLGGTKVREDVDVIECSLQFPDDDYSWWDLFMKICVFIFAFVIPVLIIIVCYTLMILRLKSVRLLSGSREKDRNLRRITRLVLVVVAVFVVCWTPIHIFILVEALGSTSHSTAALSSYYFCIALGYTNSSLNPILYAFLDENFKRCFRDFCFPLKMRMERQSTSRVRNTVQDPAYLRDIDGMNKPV
metric: AC50 (µM)
State just the number; it will be interpreted in µM.

COc1ccc(CC2c3cc(OC)c(OC)cc3CC[N+]2(C)CCC(=O)OCCCCCOC(=O)CC[N+]2(C)CCc3cc(OC)c(OC)cc3C2Cc2ccc(OC)c(OC)c2)cc1OC (centres undefined) = 22

Data request: For the compound shown here, "CN1CCN(C2=Nc3ccccc3Oc3ccc(Cl)cc32)CC1" , give the reported AC50.
Data returned: 8.24

* * *

- target or test system: Voltage-gated inwardly rectifying potassium channel KCNH2 (Homo sapiens); also: assay procedure not described here
- Sequence (Q12809 whole entry): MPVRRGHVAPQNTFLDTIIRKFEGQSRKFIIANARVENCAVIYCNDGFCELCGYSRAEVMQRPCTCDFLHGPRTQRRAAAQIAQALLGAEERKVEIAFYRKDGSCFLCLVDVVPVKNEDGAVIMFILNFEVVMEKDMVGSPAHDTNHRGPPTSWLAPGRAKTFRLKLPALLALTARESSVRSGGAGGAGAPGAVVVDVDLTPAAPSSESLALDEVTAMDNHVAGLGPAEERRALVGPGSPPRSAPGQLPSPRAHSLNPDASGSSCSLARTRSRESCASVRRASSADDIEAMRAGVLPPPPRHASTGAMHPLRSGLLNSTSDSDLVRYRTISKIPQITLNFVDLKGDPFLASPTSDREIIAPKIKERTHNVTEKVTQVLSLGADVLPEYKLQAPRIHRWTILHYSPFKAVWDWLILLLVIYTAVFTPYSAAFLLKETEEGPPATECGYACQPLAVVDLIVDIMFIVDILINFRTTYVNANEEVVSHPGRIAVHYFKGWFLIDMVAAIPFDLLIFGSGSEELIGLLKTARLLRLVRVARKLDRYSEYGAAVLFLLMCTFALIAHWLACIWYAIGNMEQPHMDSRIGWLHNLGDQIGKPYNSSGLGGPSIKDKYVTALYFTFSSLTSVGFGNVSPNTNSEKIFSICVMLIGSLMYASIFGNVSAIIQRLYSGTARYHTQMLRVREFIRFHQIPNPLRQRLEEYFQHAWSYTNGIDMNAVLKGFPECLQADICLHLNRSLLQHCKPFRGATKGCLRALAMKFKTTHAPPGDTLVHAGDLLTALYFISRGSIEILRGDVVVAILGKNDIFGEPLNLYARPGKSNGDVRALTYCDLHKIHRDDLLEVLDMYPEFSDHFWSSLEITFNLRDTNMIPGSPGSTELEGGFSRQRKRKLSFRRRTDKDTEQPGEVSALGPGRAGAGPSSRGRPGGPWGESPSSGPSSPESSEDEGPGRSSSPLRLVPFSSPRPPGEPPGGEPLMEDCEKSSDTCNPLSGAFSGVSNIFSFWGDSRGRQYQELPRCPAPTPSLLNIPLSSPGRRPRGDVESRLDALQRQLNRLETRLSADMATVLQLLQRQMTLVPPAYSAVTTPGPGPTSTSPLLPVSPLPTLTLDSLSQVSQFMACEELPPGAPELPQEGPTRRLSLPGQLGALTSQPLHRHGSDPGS
- Assay type: functional
Recorded measurements of AC50, one per entry

Check out these entries, answers already filled in.
C#C[C@]1(O)CC[C@H]2[C@@H]3CCC4=CC(=O)CC[C@@H]4[C@H]3C(=C)C[C@@]21CC = > 30 µM
CO[C@H]1/C=C/O[C@@]2(C)Oc3c(C)c(O)c4c(O)c(c(/C=N/N5CCN(C)CC5)c(O)c4c3C2=O)NC(=O)/C(C)=C\C=C\[C@H](C)[C@H](O)[C@@H](C)[C@@H](O)[C@@H](C)[C@H](OC(C)=O)[C@@H]1C = > 30 µM
Oc1ccc2c(c1)[C@@]13CCCC[C@@]1(O)[C@@H](C2)N(CC1CCC1)CC3 = 12 µM

Data request: For the compound shown here, "Cc1cc(N)c2ccccc2[n+]1CCCCCCCCCC[n+]1c(C)cc(N)c2ccccc21" , give the reported AC50.
Data returned: 0.133 µM

Data request: For the compound shown here, CCC1(c2ccccc2)CCC(=O)NC1=O (stereo not drawn) [GLUTETHIMIDE] , give the reported AC50.
Data returned: > 30 µM
